This collection of values is drawn from the supplement of paper PMC11246515.

# run description: total protein half-life in vivo (active degradation + dilution); higher = more stable protein
# assay conditions: E. coli NCM3722 delta-clpP; growth: N-lim chemostat; doubling time 6 h
Each record here notes measured total protein half-life in vivo.

{"seq string": "MKQLWFAMSLVTGSLLFSANASATPASGALLQQMNLASQSLNYELSFISINKQGVESLRYRHARLDNRPLAQLLQMDGPRREVVQRGNEISYFEPGLEPFTLNGDYIVDSLPSLIYTDFKRLSPYYDFISVGRTRIADRLCEVIRVVARDGTRYSYIVWMDTESKLPMRVDLLDRDGETLEQFRVIAFNVNQDISSSMQTLAKANLPPLLSVPVGEKAKFSWTPTWLPQGFSEVSSSRRPLPTMDNMPIESRLYSDGLFSFSVNVNRATPSSTDQMLRTGRRTVSTSVRDNAEITIVGELPPQTAKRIAENIKFGAAQ [P0AFX9]", "total protein half-life in vivo": "6.16 h"}

Pending sequence:
total protein half-life in vivo reading for MSHVELQPGFDFQQAGKEVLAIERECLAELDQYINQNFTLACEKMFWCKGKVVVMGMGKSGHIGRKMAATFASTGTPSFFVHPGEAAHGDLGMVTPQDVVIAISNSGESSEITALIPVLKRLHVPLICITGRPESSMARAADVHLCVKVAKEACPLGLAPTSSTTATLVMGDALAVALLKARGFTAEDFALSHPGGALGRKLLLRVNDIMHTGDEIPHVKKTASLRDALLEVTRKNLGMTVICDDNMMIEGIFTDGDLRRVFDMGVDVRQLSIADVMTPGGIRVRPGILAVEALNLMQSRHITSVMVADGDHLLGVLHMHDLLRAGVV : 4.95 h

----------
# run description: total protein half-life in vivo (active degradation + dilution); higher = more stable protein
# assay conditions: wild type E. coli NCM3722; growth: N-lim chemostat; doubling time 12 h
Measured total protein half-life in vivo values are reported for all entries that follow.
Quick reminder: number only, in h, skip the unit.

{"seq string": "MTQFASPVLHSLLDTDAYKLHMQQAVFHHYYDVHVAAEFRCRGDDLLGIYADAIREQVQAMQHLRLQDDEYQWLSALPFFKADYLNWLREFRFNPEQVTVSNDNGKLDIRLSGPWREVILWEVPLLAVISEMVHRYRSPQADVAQALDTLESKLVDFSALTAGLDMSRFHLMDFGTRRRFSREVQETIVKRLQQESWFVGTSNYDLARRLSLTPMGTQAHEWFQAHQQISPDLANSQRAALAAWLEEYPDQLGIALTDCITMDAFLRDFGVEFASRYQGLRHDSGDPVEWGEKAIAHYEKLGIDPQSKTLVFSDNLDLRKAVELYRHFSSRVQLSFGIGTRLTCDIPQVKPLNIVIKLVECNGKPVAKLSDSPGKTICHDKAFVRALRKAFDLPHIKKAS", "total protein half-life in vivo, h": 4.49}

// total protein half-life in vivo value for MSAKHPVIAVTGSSGAGTTTTSLAFRKIFAQLNLHAAEVEGDSFHRYTRPEMDMAIRKARDAGRHISYFGPEANDFGLLEQTFIEYGQSGKGKSRKYLHTYDEAVPWNQVPGTFTPWQPLPEPTDVLFYEGLHGGVVTPQHNVAQHVDLLVGVVPIVNLEWIQKLIRDTSERGHSREAVMDSVVRSMEDYINYITPQFSRTHLNFQRVPTVDTSNPFAAKGIPSLDESFVVIHFRNLEGIDFPWLLAMLQGSFISHINTLVVPGGKMGLAMELIMLPLVQRLMEGKKIE [P0AEX5] : 10.9
